target: Protein skinhead-1 (Caenorhabditis elegans); type: functional
Sequence (P34707 whole entry): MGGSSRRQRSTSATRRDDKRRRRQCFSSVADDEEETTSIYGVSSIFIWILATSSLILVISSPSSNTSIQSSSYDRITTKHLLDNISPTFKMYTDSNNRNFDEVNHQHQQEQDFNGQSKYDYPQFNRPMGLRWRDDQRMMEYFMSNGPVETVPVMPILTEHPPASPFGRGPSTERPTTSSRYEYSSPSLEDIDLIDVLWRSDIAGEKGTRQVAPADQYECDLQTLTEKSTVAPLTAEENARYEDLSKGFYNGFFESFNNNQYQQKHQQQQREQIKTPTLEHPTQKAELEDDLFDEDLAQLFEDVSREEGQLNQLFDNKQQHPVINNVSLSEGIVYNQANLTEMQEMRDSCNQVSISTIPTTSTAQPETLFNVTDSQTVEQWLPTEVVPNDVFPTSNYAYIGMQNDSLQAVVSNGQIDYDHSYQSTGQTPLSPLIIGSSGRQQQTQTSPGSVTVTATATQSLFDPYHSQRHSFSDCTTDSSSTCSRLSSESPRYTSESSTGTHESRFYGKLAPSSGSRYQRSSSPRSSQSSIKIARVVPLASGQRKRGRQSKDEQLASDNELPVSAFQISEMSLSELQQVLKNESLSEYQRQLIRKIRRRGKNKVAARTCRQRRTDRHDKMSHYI
Activity calls are given as the source filed them.
Hi! Could you answer with just one of these? active, inactive

Cc1cc2cc(CNC(=O)c3ccc(S(=O)(=O)N4CCCC4)cc3)ccc2n1C | inactive

Q) Per the records of this test, what outcome belongs to CCCC(NCC(O)COc1ccc(-c2ccccc2)cc1)c1ccccc1 (stereo not given) ?
A) inactive

Q) Per the records of this test, what outcome belongs to Cc1nc2ccccc2cc1OCc1ccc(F)cc1 ?
A) active

Q) Per the records of this test, what outcome belongs to Cc1ccc2sc(NC(=O)c3cccc(N4C(=O)CCC4=O)c3)nc2c1C ?
A) inactive

Q) Per the records of this test, what outcome belongs to Cc1cccc(/C=C/C(=O)c2ccc(NC3=NCCCS3)cc2)c1 ?
A) active

----------
System: Cytochrome P450 2D6 (Homo sapiens, UniProt P10635) | Read-out: AC50;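 also: CYP2D6 member of a cytochrome P450 panel assay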
Sequence (P10635 whole entry): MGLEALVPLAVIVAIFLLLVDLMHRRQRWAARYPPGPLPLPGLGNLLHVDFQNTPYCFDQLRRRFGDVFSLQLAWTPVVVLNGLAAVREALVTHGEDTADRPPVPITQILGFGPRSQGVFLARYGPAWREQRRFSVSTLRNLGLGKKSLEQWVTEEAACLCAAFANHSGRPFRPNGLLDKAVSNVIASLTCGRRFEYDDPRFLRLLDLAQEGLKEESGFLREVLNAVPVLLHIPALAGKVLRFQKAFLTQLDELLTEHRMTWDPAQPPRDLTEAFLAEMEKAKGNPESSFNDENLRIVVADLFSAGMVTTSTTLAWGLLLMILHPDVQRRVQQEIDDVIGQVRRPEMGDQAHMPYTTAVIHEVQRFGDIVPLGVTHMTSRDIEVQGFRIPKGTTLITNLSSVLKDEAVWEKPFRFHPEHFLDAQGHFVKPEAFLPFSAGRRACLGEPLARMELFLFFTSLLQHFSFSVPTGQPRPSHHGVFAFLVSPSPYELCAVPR

// worked examples, AC50 included
N#Cc1ccccc1-c1ccc2ncnc(NC3CC3)c2c1 | 39.8 µM (inconclusive)
O=C(c1cc(-c2ccc(Cl)cc2Cl)on1)N1CCN(C(=O)c2ccco2)CC1 | 20 µM (inconclusive)
CN(Cc1ccco1)c1cc(-c2cccc(NS(C)(=O)=O)c2)ncn1 | 25.1 µM (inconclusive)

We now examine a further compound.
Q) What value of measured AC50 is listed for OC(COc1ccc(OCC(O)CN2CCCCCC2)cc1)CN1CCCCCC1 (centres undefined) ?
A) 15.8 µM (inconclusive)

----------
Exercise: state measured AC50 for each of the compounds provided.
biological target: FAD-linked sulfhydryl oxidase ALR (Homo sapiens, UniProt P55789); test: ALR-catalysed DTT oxidation blockers – biochemical, H2O2 detection, luminescence, cherry-pick, dose response (AID 493248)
Sequence (P55789 whole entry): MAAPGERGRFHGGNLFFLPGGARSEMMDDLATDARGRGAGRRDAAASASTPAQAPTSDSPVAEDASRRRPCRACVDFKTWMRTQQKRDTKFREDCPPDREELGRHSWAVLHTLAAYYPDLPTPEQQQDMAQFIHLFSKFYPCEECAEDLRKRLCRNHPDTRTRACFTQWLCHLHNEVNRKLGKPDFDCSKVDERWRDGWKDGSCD
The source made the active and inactive calls.

Cc1cccc(N2CCN(C(=O)NC3CCCCC3)CC2C)c1 (stereo not given) | 6.6 µM (active)

Could you tell me AC50 for each of these compounds? They are listed below.
1. Cc1c(Br)cnn1C(C)C(=O)N1CCN(c2ccc(F)cc2)CC1 (stereo not given)
2. Cc1cc(C(=O)N2CCCC(Nc3ccc(C(C)C)cc3)C2)nn1C (stereo not given)
3. COc1cc(/C=N/NC(=O)CCn2nnc3ccccc32)ccc1O
4. COc1cc(/C=C2/C(=O)ON=C2C)cc(Cl)c1O

A)
1: 0.578 µM (active); 2: 6.69 µM (active); 3: 0.236 µM (active); 4: 16 µM (active)

----------
biological target: UniProt:P38532; experiment: decrease of HSF1-responsive luciferase luminescence – cell-based, NIH3T3, dose retest, confirmation (AID 2382); format: functional;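 also: NIH3T3 fibroblasts with HSF1-driven luciferase reporter stressed by proteasome inhibitor MG132; luminescence from HSF1-driven luciferase expression after 8 hours of MG132 stress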
Sequence (P38532 whole entry): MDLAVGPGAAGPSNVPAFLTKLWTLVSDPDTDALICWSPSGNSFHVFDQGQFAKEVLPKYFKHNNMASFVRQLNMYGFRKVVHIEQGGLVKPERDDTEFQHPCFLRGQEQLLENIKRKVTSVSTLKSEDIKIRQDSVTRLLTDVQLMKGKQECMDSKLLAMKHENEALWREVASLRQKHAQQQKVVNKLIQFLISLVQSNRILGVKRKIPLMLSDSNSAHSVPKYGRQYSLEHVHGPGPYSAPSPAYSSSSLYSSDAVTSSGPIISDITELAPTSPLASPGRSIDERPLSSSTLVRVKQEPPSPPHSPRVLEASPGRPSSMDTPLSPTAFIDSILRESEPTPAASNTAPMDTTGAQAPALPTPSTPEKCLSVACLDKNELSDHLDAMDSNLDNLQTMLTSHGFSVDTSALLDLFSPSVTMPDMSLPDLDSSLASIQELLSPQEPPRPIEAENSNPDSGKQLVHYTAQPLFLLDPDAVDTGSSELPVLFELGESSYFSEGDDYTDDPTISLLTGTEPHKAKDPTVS
Exercise: state measured EC50 for each of the compounds provided.

// worked examples, EC50 included
CCOC(=O)N1CCN(c2nc(C)c3c(n2)CCCC3=O)CC1 | > 195 µM (not active)
CCCS(=O)(=O)N1CCCC(C(=O)N2CCC(Cc3ccccc3)CC2)C1 (stereo not drawn) | > 195 µM (not active)

We now examine a further compound.
Q) What value of measured EC50 is listed for C1=C(c2ccccc2)CCN(c2[nH]cnc3ncnc2-3)C1 ?
A) > 195 µM (not active)

----------
target: UniProt Q9XUB2; experiment: potency of MEX-5 RNA-binding blockers – biochemical, C. elegans, fluorescence polarization, dose response (AID 1960)
Sequence (Q9XUB2 whole entry): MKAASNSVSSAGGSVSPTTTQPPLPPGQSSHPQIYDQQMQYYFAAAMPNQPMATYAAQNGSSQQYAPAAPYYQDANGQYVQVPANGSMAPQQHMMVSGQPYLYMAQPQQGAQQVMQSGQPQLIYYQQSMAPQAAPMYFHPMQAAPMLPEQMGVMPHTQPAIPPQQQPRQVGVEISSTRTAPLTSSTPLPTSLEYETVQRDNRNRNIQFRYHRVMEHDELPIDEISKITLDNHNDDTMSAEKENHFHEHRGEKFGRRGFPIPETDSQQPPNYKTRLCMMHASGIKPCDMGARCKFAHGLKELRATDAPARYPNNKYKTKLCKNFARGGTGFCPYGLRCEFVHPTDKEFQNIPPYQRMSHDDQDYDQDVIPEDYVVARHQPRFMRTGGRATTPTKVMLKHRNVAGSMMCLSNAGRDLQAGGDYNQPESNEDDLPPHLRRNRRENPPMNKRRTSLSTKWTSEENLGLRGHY
Activity calls are given as the source filed them.
Measurement Type: EC50

// worked examples, EC50 included
Cc1ccc(-c2cc(-c3ccco3)c(C#N)c(=O)[nH]2)cc1 | 8.36 µM (inconclusive)
O=C(OCC(=O)c1ccco1)c1ccc2ncsc2c1 | > 300 µM (not active)
C=CCN1C=C2C(=O)C(C)(OC(=O)CCC(=O)OC)C(=O)C(Br)=C2C=C1c1ccc(OC)cc1 (centres undefined) | 42.8 µM (active)

We now examine a further compound.
Q) Item COc1ccc(NC(=O)CN2CCC(NC(=O)C3CCCCC3)CC2)c([N+](=O)[O-])c1 with UniProt Q9XUB2 - EC50?
A) > 300 µM (not active)
